The origin of these recorded values is paper PMC5761851.

# SYSTEM UNDER TEST: JNK2α2 (Homo sapiens, UniProt P45984)
# Construct: purchased Eurofins Pharma Discovery Services (KinaseProfiler; Cerep BioPrint panel)
# Sequence (P45984 whole entry): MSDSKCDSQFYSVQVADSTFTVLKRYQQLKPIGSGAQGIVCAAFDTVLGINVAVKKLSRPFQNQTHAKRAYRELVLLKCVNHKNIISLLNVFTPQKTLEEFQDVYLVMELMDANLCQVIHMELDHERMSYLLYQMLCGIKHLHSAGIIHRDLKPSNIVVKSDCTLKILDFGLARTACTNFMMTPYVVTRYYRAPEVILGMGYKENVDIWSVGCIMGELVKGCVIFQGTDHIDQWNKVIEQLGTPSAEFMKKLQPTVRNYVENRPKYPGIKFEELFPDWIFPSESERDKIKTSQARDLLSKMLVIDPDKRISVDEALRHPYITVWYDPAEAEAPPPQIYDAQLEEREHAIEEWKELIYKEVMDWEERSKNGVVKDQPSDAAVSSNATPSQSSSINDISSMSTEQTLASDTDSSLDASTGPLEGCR
# TEST: kinase selectivity panel
# Type: biochemical
# EXPERIMENTAL CONDITIONS: read-out: percentage of control activity (POC), JNK2α2
# Procedure: Kinase selectivity was evaluated at Eurofins Pharma Discovery Services using a selection of 125 representative kinases tested at a concentration of 10 μM in duplicate (S3 Table). IC50 values for selected activities were further characterized at 9 duplicate concentrations. DNA-PK activity was determined at the SelectScreen® Biochemical kinase Profiling Service of Thermo Fisher Scientific.
Label criterion met when remaining activity at 10 µM < 90%; otherwise criterion not met.

Before answering, review these 3 worked examples.
- COMPOUND: "CS(=O)(=O)N1CCN(c2ccc(Nc3ncc(C(N)=O)c(NC4CC4)n3)cc2)CC1"
  GROUP: "criterion met"
- COMPOUND: "Cc1ccc(C(=O)NCC2CC2)cc1-c1ccc2c(c1)NC(=O)C21CCCC1"
  GROUP: "criterion not met"
- COMPOUND: "CC(C)(C)N1CCC(c2cc(-c3ccc(F)cc3Cl)c3cc[n+]([O-])c(-c4c(Cl)cccc4Cl)c3n2)CC1"
  GROUP: "criterion not met"

Switching to the query record.
A record lists Cn1cc(-c2cccc(-c3nc(C(=O)NC4C5CC6CC4CC(O)(C6)C5)c(N)nc3N)c2)cn1 (centres unmarked) . Is its remaining activity at 10 µM below 90%?
criterion not met
